The reported measurements were obtained from patent US20250051445A1.

Attribute: fold decrease in EC50
# assayedSystem: α/β TCR/CD3 complex on Jurkat, Clone E6-1 cells (human) (UniProt P07766)
# protocolNotes: flow cytometry on Jurkat Clone E6-1 cells, Fab titration 10 µg/ml to 10 ng/ml; EC50 of MFI, fold decrease vs TPP-1374
Quick reminder: number only, in fold, skip the unit.

Worked examples, 4 binders total:
Q: May I ask what fold decrease in EC50 has been recorded for TPP-1387 Fab fragment (Fab, V domains shown) VH: EVQLVQSGAEVKKPGASVKVSCKASGYKFTSYVMHWVRQAPGQGLEWMGYINPYNDVTKYAEKFQGRVTLTSDTSTSTAYMELSSLRSEDTAVYYCARGSYYDYEGFVYWGQGTLVTVSS VL: QIQMTQSPSSLSASVGDRVTITCSATSSVSYMHWYQQKPGKAPKRWIYDTSKLASGVPSRFSGSGSGTDYTLTISSLQPEDAATYYCQQWSSNPLTFGGGTKVEIKR ?
Result: 3.2

Q: May I ask what fold decrease in EC50 has been recorded for TPP-1381 Fab fragment (Fab, V domains shown) VH: EVQLVQSGAEVKKPGASVKVSCKASGYKFTSYVMHWVRQAPGQGLEWMGYINPYKDVTKYAEKFQGRVTLTSDTSTSTAYMELSSLRSEDTAVHYCARGSYYDYEGFVYWGQGTLVTVSS VL: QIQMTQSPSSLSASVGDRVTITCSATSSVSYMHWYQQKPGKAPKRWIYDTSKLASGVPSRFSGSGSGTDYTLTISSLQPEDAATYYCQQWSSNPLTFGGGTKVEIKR ?
Result: 8.2

Q: May I ask what fold decrease in EC50 has been recorded for TPP-1376 Fab fragment (Fab, V domains shown) VH: EVQLVQSGAEVKKPGASVKVSCKASGYKFKSYVMHWVRQAPGQGLEWMGYINPYNDVTKYAEKFQGRVTLTSDTSTSTAYMELSSLRSEDTAVHYCARGSYYDYEGFVYWGQGTLVTVSS VL: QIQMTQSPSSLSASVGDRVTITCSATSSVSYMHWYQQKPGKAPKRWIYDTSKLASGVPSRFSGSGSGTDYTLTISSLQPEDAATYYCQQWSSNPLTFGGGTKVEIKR ?
Result: 2.8

Q: May I ask what fold decrease in EC50 has been recorded for TPP-1388 Fab fragment (Fab, V domains shown) VH: EVQLVQSGAEVKKPGASVKVSCKASGYKFTRYVMHWVRQAPGQGLEWMGYINPYNDVTKYAEKFQGRVTLTSDTSTSTAYMELSSLRSEDTAVYYCARGSYYDYEGFVYWGQGTLVTVSS VL: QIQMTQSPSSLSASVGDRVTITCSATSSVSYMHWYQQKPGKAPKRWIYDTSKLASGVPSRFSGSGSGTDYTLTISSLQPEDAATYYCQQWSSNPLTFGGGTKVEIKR ?
Result: 8.1

# ---- query binder ----
Q: May I ask what fold decrease in EC50 has been recorded for TPP-1372 Fab fragment (Fab, V domains shown) VH: EVQLVQSGAEVKKPGASVKVSCKASGYKFTSYVMHWVRQAPGQGLEWMGYINPYKDVTKYAEKFQGRVTLTSDTSTSTAYMELSSLRSEDTAVYYCARGSYYDYEGFVYWGQGTLVTVSS VL: QIQMTQSPSSLSASVGDRVTITCSATSSVSYMHWYQQKPGKAPKRWIYDTSKLARGVPSRFSGSGSGTDYTLTISSLQPEDAATYYCQQWSSNPLTFGGGTKVEIKR ?
Result: 21.5
